B1: mouse Rspo2 Fu1–Fu2 (mRspo2Fu1–Fu2, N37 or I39-G144), His10 [mouse] / mouse ZNRF3 ectodomain (K53-L205), biotinylated, immobilised for SPR [modified: biotin at the C-terminal BirA recognition sequence; biotin at the C-terminal BirA … (parent complex)
chain 1: ICKGCLSCSKDNGCSRCQQKLFFFLRREGMRQYGECLHSCPSGYYGHRAPDMNRCARCRIENCDSCFSKDFCTKCKVGFYLHRGRCFDECPDGFAPLDETMECVEG
chain 2: KETAFVEVVLFESSPSGDYTTHTTGLTGRFSRAGAMLSAEGEIVQMHPLGLCNNNDEEDLYEYGWVGVVKLEQPELDPKPCLTVLGKAKRAVQRGATAVIFDVSENPEAIDQLNQGSEDPLKRPVVYVKGADAIKLMNIVNKQKVARARIQHL

# Variants of: B1
# assay-text: SPR
experimental-endpoint: Kd (µM)

a: chain 2 M46T
b: chain 2 Q45E
[Q] Looking at a and b , which one comes out lower in Kd terms? // respond with label for picked entry
[A] a

// data source = paper PMC3905715
